tested on: MOLT-4 leukemia; test: NCI tumour cell line growth inhibition, 48 h

>  <compound>
CC1(C)O[C@@H]2[C@@H](COC(=O)c3ccccc3)C[C@@H](C#N)[C@@H]2O1

>  <value.unit>
µM

>  <inequality.operator>
>

>  <TGI>
100

$$$$
>  <compound>
COc1cc(-c2nn(-c3cccc(NC(=O)Nc4cc(C(F)(F)F)cc(C(F)(F)F)c4)c3)cc2-c2ccncc2)ccc1Cl

>  <value.unit>
µM

>  <inequality.operator>
=

>  <TGI>
4.48

$$$$
>  <compound>
CCOc1ccccc1NC(=O)CC1SC(=Nc2ccc([N+](=O)[O-])cc2)NC1=O (centres undefined)

>  <value.unit>
µM

>  <inequality.operator>
=

>  <TGI>
60.3

$$$$
>  <compound>
CCCCCCCCCc1cc(-c2ccc(C=O)s2)sc1-c1ccc(C=O)s1

>  <value.unit>
µM

>  <inequality.operator>
=

>  <TGI>
10.5

$$$$
>  <compound>
C=CC[N+]12CN3CN(CN(C3)C1)C2

>  <value.unit>
µM

>  <inequality.operator>
=

>  <TGI>
57.5

$$$$
>  <compound>
CCN=C(NNc1ccc([N+](=O)[O-])cc1)P(=O)(OC(C)C)OC(C)C

>  <value.unit>
µM

>  <inequality.operator>
>

>  <TGI>
100

$$$$
>  <compound>
NC(=S)N/N=C(\Cc1nc2ccc(Cl)cc2[nH]c1=O)C(=O)Nc1ccc(Cl)cc1

>  <value.unit>
µM

>  <inequality.operator>
>

>  <TGI>
100

$$$$
>  <compound>
Clc1ccc2c(c1)C1C(CO2)C(c2ccccc2)=NN1c1ccccc1 (centres undefined)

>  <value.unit>
µM

>  <inequality.operator>
=

>  <TGI>
62.6

$$$$
>  <compound>
O=C1c2ccccc2C(=O)[C@@]23O[C@@]12C1(Oc2cccc4cccc(c24)O1)[C@@H]1O[C@@H]1[C@@H]3O

>  <value.unit>
µM

>  <inequality.operator>
=

>  <TGI>
24.5

$$$$
